Assay explanation: self-splicing fitness, log relative to wild type (ln ratio); higher = more splicing; Tetrahymena group I intron in knt gene, E. coli kanamycin selection, DiMSum; sequences stand for … in CUCUCU…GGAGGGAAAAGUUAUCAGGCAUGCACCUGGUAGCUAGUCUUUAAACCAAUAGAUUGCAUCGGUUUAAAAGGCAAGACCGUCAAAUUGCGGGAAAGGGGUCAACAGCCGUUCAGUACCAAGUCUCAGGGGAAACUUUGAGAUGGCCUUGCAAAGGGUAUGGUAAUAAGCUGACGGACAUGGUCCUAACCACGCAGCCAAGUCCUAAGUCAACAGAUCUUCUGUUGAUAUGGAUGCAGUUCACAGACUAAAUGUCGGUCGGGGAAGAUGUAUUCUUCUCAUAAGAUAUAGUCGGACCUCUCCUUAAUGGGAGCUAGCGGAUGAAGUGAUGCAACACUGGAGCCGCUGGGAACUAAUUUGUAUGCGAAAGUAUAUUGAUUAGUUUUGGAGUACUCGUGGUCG;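 note: selection with 25 µg/mL kanamycin versus none on LB agar overnight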
Test conditions: 37 °C
Observation type: self-splicing fitness (ln)
Quick one: just the number, no unit, thanks!

Below, 6 sequences whose answers are already recorded.
GGUCAGCAAUAUUACGCUCA    -0.0519
AGUCAGCAAUAUUACGGCAC    -0.255
CCCCAGCAAUAUUACGGACC    -2.64
GCGUAGCAAUAUUACGGGUC    -1.54
GAAUAGCAAUAUUACGACUA    -0.533
ACGGAGCAAUAUUACGCUGA    -1.9

Retrieve self-splicing fitness (ln) measured for `UAGUAGCAAUAUUACGGCUC` and print it. 0.206

Retrieve self-splicing fitness (ln) measured for `UCCUAGCAAUAUUACGCUCC` and print it. -0.747

Retrieve self-splicing fitness (ln) measured for `AGUAAGCAAUAUUACGUGUU` and print it. -1.99

Retrieve self-splicing fitness (ln) measured for `CGGAAGCAAUAUUACGGUUG` and print it. -0.061

Retrieve self-splicing fitness (ln) measured for `CCUGAGCAAUAUUACGGGCA` and print it. -1.83

Retrieve self-splicing fitness (ln) measured for `AAGAAGCAAUAUUACGUAUU` and print it. -1.43

Retrieve self-splicing fitness (ln) measured for `GCUUAGCAAUAUUACGGUCU` and print it. -0.0218

Retrieve self-splicing fitness (ln) measured for `UGGCAGCAAUAUUACGAAGG` and print it. -1.21

---

Assay explanation: self-splicing fitness, log relative to wild type (ln ratio); higher = more splicing; Tetrahymena group I intron in knt gene, E. coli kanamycin selection, DiMSum; sequences stand for … in CUCUCU…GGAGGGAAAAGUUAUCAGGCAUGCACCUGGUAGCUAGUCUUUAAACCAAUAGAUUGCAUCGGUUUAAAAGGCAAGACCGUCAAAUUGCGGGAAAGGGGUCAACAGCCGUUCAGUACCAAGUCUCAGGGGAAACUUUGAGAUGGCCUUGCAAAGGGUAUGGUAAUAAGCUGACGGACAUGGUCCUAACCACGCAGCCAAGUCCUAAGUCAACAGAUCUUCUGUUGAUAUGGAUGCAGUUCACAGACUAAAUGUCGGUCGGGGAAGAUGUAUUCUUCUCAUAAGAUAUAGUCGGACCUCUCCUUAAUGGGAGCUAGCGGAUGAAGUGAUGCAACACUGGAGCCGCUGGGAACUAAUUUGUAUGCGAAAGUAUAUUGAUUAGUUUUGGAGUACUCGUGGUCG
Test conditions: 30 °C
Observation type: self-splicing fitness (ln)

ACCUAGCAAUAUUACGGCGG    -1.36
GGUGAGCAAUAUUACGAUCU    -0.331
AGACAGCAAUAUUACGUUUG    -3.34

Retrieve self-splicing fitness (ln) measured for `AGUCAGCAAUAUUACGAUGA` and print it. -0.22

Retrieve self-splicing fitness (ln) measured for `UAUAAGCAAUAUUACGAGUU` and print it. -2.72

Retrieve self-splicing fitness (ln) measured for `CGUGAGCAAUAUUACGGUAU` and print it. -3.54

Retrieve self-splicing fitness (ln) measured for `UUAUAGCAAUAUUACGAUUG` and print it. -1.01

Retrieve self-splicing fitness (ln) measured for `AAGAAGCAAUAUUACGCCGA` and print it. -0.879
